Values compiled from paper PMC2756588.

System under test: T1, Myo5, Q04439
T1 sequence (Q04439 1072-1160, looked up): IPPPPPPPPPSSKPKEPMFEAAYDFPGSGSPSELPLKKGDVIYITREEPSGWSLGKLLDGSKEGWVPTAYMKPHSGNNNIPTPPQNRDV
Measurement notes: SPOT array
Experimental context: median of control spots 471
Reported SPOT intensity values for a set of binders

Use these answered entries as a reference point.
NLDRSKISLPDFDDE = 0
NQARKPFLLPATELS = 1
GRSRLFPHSPLGRSS = 0

The record that follows has no SPOT intensity shown yet.
What does the record list as SPOT intensity for `RRASLFPRDPKRLRP` ?
1
